Data credit: paper PMC3391414

# target: UniProt P22309
# measurementNotes: Glucuronidation by recombinant human UGT1A1
# runParameters: UGT1A1, substrate 10 μM
measurementKind: Degree of regiospecificity (major glucuronide in bracket)

[[record]]
compound = "O=c1c(O)c(-c2ccc(O)cc2)oc2cc(O)ccc12 [7,4'DHFnol, 3,7,4’-trihydroxyflavone]"
target = "UniProt P22309"
measuredvalue = "No (3-O, 7-O)"

[[record]]
compound = "O=c1c(O)c(-c2ccc(O)cc2)oc2cc(O)cc(O)c12 [5,7,4'THFnol, 3,5,7,4’-tetrahydroxyflavone]"
target = "UniProt P22309"
measuredvalue = "No (3-O, 7-O)"


---

# target: UGT1A1 (Homo sapiens, UniProt P22309)
# Sequence (P22309 26-533): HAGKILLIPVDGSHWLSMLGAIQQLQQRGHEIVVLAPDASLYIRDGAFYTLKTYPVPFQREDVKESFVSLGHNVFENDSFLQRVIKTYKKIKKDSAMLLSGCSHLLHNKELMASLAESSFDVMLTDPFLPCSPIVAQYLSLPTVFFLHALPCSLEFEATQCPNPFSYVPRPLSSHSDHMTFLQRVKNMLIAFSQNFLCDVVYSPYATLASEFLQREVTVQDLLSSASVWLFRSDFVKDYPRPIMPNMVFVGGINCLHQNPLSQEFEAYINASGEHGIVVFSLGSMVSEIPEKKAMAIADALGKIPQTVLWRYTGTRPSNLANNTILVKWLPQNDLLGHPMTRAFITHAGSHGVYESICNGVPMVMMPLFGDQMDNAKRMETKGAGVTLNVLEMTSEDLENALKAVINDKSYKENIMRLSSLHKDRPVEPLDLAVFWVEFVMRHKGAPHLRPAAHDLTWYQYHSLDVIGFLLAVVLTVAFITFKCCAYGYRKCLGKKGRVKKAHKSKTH
# measurementNotes: Glucuronidation by recombinant human UGT1A1
# runParameters: UGT1A1, substrate 2.5 μM
measurementKind: Degree of regiospecificity (major glucuronide in bracket)

[[record]]
compound = "O=c1c(O)c(-c2ccccc2)oc2cc(O)cc(O)c12 [5,7DHFnol, 3,5,7-trihydroxyflavone]"
target = "UGT1A1 (Homo sapiens, UniProt P22309)"
measuredvalue = "Weak (7-O)"

[[record]]
compound = "O=c1cc(-c2ccc(O)cc2)oc2cc(O)ccc12 [7,4'DHF, 7,4’-dihydroxyflavone]"
target = "UGT1A1 (Homo sapiens, UniProt P22309)"
measuredvalue = "Weak (7-O)"

[[record]]
compound = "O=c1c(O)c(-c2ccc(O)cc2)oc2cc(O)cc(O)c12 [5,7,4'THFnol, 3,5,7,4’-tetrahydroxyflavone]"
target = "UGT1A1 (Homo sapiens, UniProt P22309)"
measuredvalue = "Weak (7-O)"

